test: qHTS of pediatric cancer cell lines to identify multiple opportunities for drug repurposing: Primary screen for OHS-50 cells (AID 1347103); details: OHS-50 osteosarcoma viability, CellTiter-Glo luminescence, 48 h; series mostly up to 57.3 µM; further: nearly all actives have a fitted effect of over 40% in size
Inconclusive results are not listed. Activity calls are given as the source filed them. The call rests on the fitted dose curve; in most records, active means well fitted cell-killing curve with a large enough effect; inconclusive means small, poorly fitted or top-dose-only effect; inactive means no such curve, though single readings can be large or run the other way.
Labels: label 1 = active, label 0 = inactive

{"compound": "CCn1cc(C(=O)O)c(=O)c2cc3c(cc21)OCO3", "classLabel": "label 0"}
{"compound": "NC(=O)c1cn(Cc2c(F)cccc2F)nn1", "classLabel": "label 0"}
{"compound": "NC(=Nc1ccccc1)Nc1ccccc1", "classLabel": "label 0"}
{"compound": "CCn1nc(C(=O)O)c(=O)c2cc3c(cc21)OCO3", "classLabel": "label 0"}
{"compound": "COCC(=O)O[C@]1(CCN(C)CCCc2nc3ccccc3[nH]2)CCc2cc(F)ccc2[C@@H]1C(C)C", "classLabel": "label 1"}
{"compound": "CCCNC(C)C(=O)Nc1ccccc1C (stereo not given)", "classLabel": "label 0"}
{"compound": "CC(C(=O)O)c1ccc(CC2CCCC2=O)cc1 (stereo not given)", "classLabel": "label 0"}
{"compound": "NC/C=C/C(=O)O", "classLabel": "label 0"}
{"compound": "CC[N+](C)(C)c1cccc(O)c1", "classLabel": "label 0"}
{"compound": "CCN(CC)CCNC(=O)c1ccc(NC(C)=O)cc1", "classLabel": "label 0"}
{"compound": "CCC(=O)c1ccc2c(c1)N(CCCN(C)C)c1ccccc1S2", "classLabel": "label 1"}
{"compound": "c1cc(CN2CCCCC2)cc(OCCCNc2nc3ccccc3s2)c1", "classLabel": "label 1"}
{"compound": "C[n+]1cc2c3c(ccc2c2ccc4cc5c(cc4c21)OCO5)OCO3", "classLabel": "label 1"}
{"compound": "CCN1CCC[C@H]1CNC(=O)c1c(O)c(Cl)cc(Cl)c1OC", "classLabel": "label 0"}
{"compound": "CC(C)[N+](C)(CCOC(=O)C1c2ccccc2Oc2ccccc21)C(C)C", "classLabel": "label 0"}
{"compound": "COCCc1ccc(OCC(O)CNC(C)C)cc1 (stereo not given)", "classLabel": "label 0"}
{"compound": "O=c1[nH]c(=O)n([C@H]2C[C@H](O)[C@@H](CO)O2)cc1Br", "classLabel": "label 0"}
{"compound": "CCO/C([O-])=N/c1c[n+](N2CCOCC2)no1", "classLabel": "label 0"}
{"compound": "Nc1ncn([C@@H]2O[C@H](CO)[C@@H](O)[C@H]2O)c(=O)n1", "classLabel": "label 1"}
{"compound": "O=C1CC2(CCCC2)CC(=O)N1CCCCN1CCN(c2ncccn2)CC1", "classLabel": "label 0"}
{"compound": "COc1ccc(CN(CCN(C)C)c2ccccn2)cc1", "classLabel": "label 0"}
{"compound": "CN/C(=C\\[N+](=O)[O-])NCCSCc1ccc(CN(C)C)o1", "classLabel": "label 0"}
{"compound": "FC(F)(F)c1ccccc1-n1ccnc1", "classLabel": "label 0"}
{"compound": "COC(=O)[C@@H](N)Cc1ccc(O)c(O)c1", "classLabel": "label 0"}
{"compound": "Cc1cc(C)c(/C=C2\\C(=O)Nc3ccccc32)[nH]1", "classLabel": "label 1"}

---

biological target: D(1A) dopamine receptor (Homo sapiens) (UniProt P21728); test: HTS Assay for Allosteric Agonists of the Human D1 Dopamine Receptor: Primary Screen for Potentiators (AID 488982); conditions: HEK293 T-REx D1 inducible cells, calcium flux, kinetic fluorescence; series mostly up to 8.37 µM
Sequence (P21728 whole entry, looked up): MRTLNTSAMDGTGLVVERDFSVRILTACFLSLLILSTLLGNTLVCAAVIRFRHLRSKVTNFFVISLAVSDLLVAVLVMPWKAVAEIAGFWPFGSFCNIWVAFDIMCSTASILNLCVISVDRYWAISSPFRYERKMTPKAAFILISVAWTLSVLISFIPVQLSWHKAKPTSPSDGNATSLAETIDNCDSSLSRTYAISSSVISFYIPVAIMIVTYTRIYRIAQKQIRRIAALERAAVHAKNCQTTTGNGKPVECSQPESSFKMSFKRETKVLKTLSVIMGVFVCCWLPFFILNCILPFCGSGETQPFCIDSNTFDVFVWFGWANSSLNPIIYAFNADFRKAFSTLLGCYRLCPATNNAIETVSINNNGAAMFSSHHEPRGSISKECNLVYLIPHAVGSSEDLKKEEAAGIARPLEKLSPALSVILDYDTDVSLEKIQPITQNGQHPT
Records with an inconclusive call do not appear. Activity calls are given as the source filed them. Calls follow the shape of the dose curve; as a rule, active = well fitted activation curve with a large enough effect; inconclusive = small, poorly fitted or top-dose-only effect; inactive = no such curve, though single readings can be large or run the other way.
Outcome codes: YES = active, NO = inactive

{"compound": "COCCOC(=O)C1=C(C)NC(C)=C(C(=O)OC(C)C)C1c1cccc([N+](=O)[O-])c1 (stereo not given)", "classLabel": "NO"}
{"compound": "NC(N)=NC(=O)Cc1c(Cl)cccc1Cl", "classLabel": "NO"}
{"compound": "Cc1ccc(Cl)c(Nc2ccccc2C(=O)O)c1Cl", "classLabel": "NO"}
{"compound": "O=C(O)CCCCCCCC(=O)O", "classLabel": "NO"}
{"compound": "CC(=O)[C@@]1(O)CC[C@H]2[C@@H]3CCC4=CC(=O)CC[C@]4(C)[C@H]3CC[C@@]21C", "classLabel": "NO"}
{"compound": "CN(C)CCOC(=O)COc1ccc(Cl)cc1", "classLabel": "NO"}
{"compound": "NC(=O)N1c2ccccc2C=Cc2ccccc21", "classLabel": "NO"}
{"compound": "CC(C)[N+](C)(CCOC(=O)C1c2ccccc2Oc2ccccc21)C(C)C", "classLabel": "NO"}
{"compound": "Cc1ccc(/C(=C\\CN2CCCC2)c2ccccn2)cc1", "classLabel": "NO"}
{"compound": "CCOC(=O)C1=C(C)NC(C)=C(C(=O)OC)C1c1cccc(Cl)c1Cl (stereo not given)", "classLabel": "NO"}
{"compound": "CC[N+](C)(C)c1cccc(O)c1", "classLabel": "NO"}
{"compound": "C[N+](C)(C)CCOC(=O)CCC(=O)OCC[N+](C)(C)C", "classLabel": "NO"}
{"compound": "CC(=O)OC(C)C[N+](C)(C)C (stereo not given)", "classLabel": "NO"}
{"compound": "CCC(=O)c1ccc2c(c1)N(CCCN(C)C)c1ccccc1S2", "classLabel": "NO"}
{"compound": "CC(=O)[C@]1(O)Cc2c(O)c3c(c(O)c2[C@@H](O[C@H]2C[C@H](N)[C@H](O)[C@H](C)O2)C1)C(=O)c1ccccc1C3=O", "classLabel": "YES"}
{"compound": "Cc1nc2ccccn2c(=O)c1CCN1CCC(C(=O)c2ccc(F)cc2)CC1", "classLabel": "NO"}
{"compound": "FC(F)(F)c1ccccc1-n1ccnc1", "classLabel": "NO"}
{"compound": "CN(C)CC/C=C1\\c2ccccc2COc2ccccc21", "classLabel": "NO"}
{"compound": "COc1ccc(CCN(C)CCCC(C#N)(c2cc(OC)c(OC)c(OC)c2)C(C)C)cc1OC (stereo not given)", "classLabel": "NO"}
{"compound": "O=C(O)CN(CCN(CC(=O)O)CC(=O)O)CCN(CC(=O)O)CC(=O)O", "classLabel": "NO"}

---

assay: S16 Schwann cell PMP22 intronic element firefly luciferase assay (AID 624032); settings: S16 rat Schwann cells, PMP22 element FLuc, 24 h; series mostly up to 57.5 µM; further: nearly all actives have a fitted effect of over 30% in size
Records with an inconclusive call do not appear. Activity calls are given as the source filed them. The call rests on the fitted dose curve; in most records, active means well fitted inhibition curve with a large enough effect; inconclusive means small, poorly fitted or top-dose-only effect; inactive means no such curve, though single readings can be large or run the other way.
Labels: active, inactive

{"compound": "C[N+](C)(C)CCCCCCCCCC[N+](C)(C)C", "classLabel": "inactive"}
{"compound": "CN(C)C(=O)Oc1ccc[n+](C)c1", "classLabel": "inactive"}
{"compound": "CC[N+](C)(C)c1cccc(O)c1", "classLabel": "inactive"}
{"compound": "COc1cc(Cc2cnc(N)nc2N)cc(OC)c1OC", "classLabel": "inactive"}
{"compound": "CC(C)(C)c1ccc(C(=O)CCCN2CCC(OC(c3ccccc3)c3ccccc3)CC2)cc1", "classLabel": "active"}
{"compound": "C[N+](C)(C)CCOC(N)=O", "classLabel": "inactive"}
{"compound": "CC(=O)[C@@]1(O)CC[C@H]2[C@@H]3CCC4=CC(=O)CC[C@]4(C)[C@H]3CC[C@@]21C", "classLabel": "inactive"}
{"compound": "O=C(CCCN1CCC(O)(c2cccc(C(F)(F)F)c2)CC1)c1ccc(F)cc1", "classLabel": "inactive"}
{"compound": "C[C@H](CS)C(=O)N1CCC[C@H]1C(=O)O", "classLabel": "inactive"}
{"compound": "CCN(CC)CCCN(c1ccccc1)C1Cc2ccccc2C1", "classLabel": "active"}
{"compound": "Cc1nc2ccccn2c(=O)c1CCN1CCC(C(=O)c2ccc(F)cc2)CC1", "classLabel": "inactive"}
{"compound": "CC(N=C(NC#N)Nc1ccncc1)C(C)(C)C (centres undefined)", "classLabel": "inactive"}
{"compound": "OCCN1CCN(CCCN2c3ccccc3C=Cc3ccccc32)CC1", "classLabel": "active"}
{"compound": "CCN1CCc2nc(N)oc2CC1", "classLabel": "inactive"}
{"compound": "FC(F)(F)c1ccccc1-n1ccnc1", "classLabel": "inactive"}
{"compound": "Nc1nc(N)c2nc(-c3ccccc3)c(N)nc2n1", "classLabel": "inactive"}
{"compound": "Cc1ccc(Cl)c(Nc2ccccc2C(=O)O)c1Cl", "classLabel": "inactive"}
{"compound": "COC(=O)C1=C(C)NC(C)=C(C(=O)OCCN(C)Cc2ccccc2)C1c1cccc([N+](=O)[O-])c1 (centres undefined)", "classLabel": "active"}
{"compound": "COc1cc2c(cc1OC)-c1cc(=Nc3c(C)cc(C)cc3C)n(C)c(=O)n1CC2", "classLabel": "active"}
{"compound": "Cc1ccc(S(=O)(=O)NC(=O)NN2CCCCCC2)cc1", "classLabel": "inactive"}
{"compound": "CCOC(=O)c1cnc2c(cnn2CC)c1NN=C(C)C", "classLabel": "inactive"}
{"compound": "OC(CCN1CCCCC1)(c1ccccc1)C1CCCCC1 (centres undefined)", "classLabel": "inactive"}
{"compound": "c1cc(CN2CCCCC2)cc(OCCCNc2nc3ccccc3s2)c1", "classLabel": "inactive"}
{"compound": "COc1ccc([C@@H]2Sc3ccccc3N(CCN(C)C)C(=O)[C@@H]2OC(C)=O)cc1", "classLabel": "inactive"}
